- Tested on: Mus musculus
- TEST NAME: Inhibition of arachidonic acid oedema in mouse ear.
- Type: functional
ED50 by entry:
Reply with just the number (in mg ear-1).

CC(Cc1ccc(O)c(O)c1)C(C)Cc1ccc(O)c(O)c1 (stereo unspecified) [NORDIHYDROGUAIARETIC ACID]; 3.1
O=C(CCCCCCCCc1ccccc1)NO; 2.56
O=C(O)Cc1ccc2c(c1)C(=O)c1ccccc1CO2; 55
CN(O)C(=O)CCc1ccc2c(c1)Cc1ccccc1CO2; 0.7
COc1ccc2c(c1)c(CC(=O)O)c(C)n2C(=O)c1ccc(Cl)cc1; 1.63

Ask | Returns the measured ED50 for the input compound. Input: `CN(O)C(=O)CCc1ccc2c(c1)C(=O)c1ccccc1CO2`
Reply | 0.69
